- MEASURED_TARGET: human P2X2/3 receptor (Homo sapiens, UniProt P56373+Q9UBL9)
- Construct: expressed in transfected cells; host or cells: CHO-K1
- Sequence (Q9UBL9 whole entry): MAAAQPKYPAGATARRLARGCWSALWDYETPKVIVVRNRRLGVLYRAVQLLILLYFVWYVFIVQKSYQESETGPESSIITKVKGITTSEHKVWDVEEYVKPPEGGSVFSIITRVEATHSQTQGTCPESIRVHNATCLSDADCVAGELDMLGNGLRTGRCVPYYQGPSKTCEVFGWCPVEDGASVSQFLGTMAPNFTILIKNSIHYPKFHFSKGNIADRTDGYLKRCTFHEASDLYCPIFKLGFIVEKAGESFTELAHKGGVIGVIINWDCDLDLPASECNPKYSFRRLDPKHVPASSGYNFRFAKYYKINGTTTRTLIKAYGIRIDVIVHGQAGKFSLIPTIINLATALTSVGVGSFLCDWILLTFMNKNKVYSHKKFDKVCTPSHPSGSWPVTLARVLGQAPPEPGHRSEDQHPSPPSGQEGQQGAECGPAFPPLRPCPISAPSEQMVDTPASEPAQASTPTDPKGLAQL
- Sequence (P56373 whole entry): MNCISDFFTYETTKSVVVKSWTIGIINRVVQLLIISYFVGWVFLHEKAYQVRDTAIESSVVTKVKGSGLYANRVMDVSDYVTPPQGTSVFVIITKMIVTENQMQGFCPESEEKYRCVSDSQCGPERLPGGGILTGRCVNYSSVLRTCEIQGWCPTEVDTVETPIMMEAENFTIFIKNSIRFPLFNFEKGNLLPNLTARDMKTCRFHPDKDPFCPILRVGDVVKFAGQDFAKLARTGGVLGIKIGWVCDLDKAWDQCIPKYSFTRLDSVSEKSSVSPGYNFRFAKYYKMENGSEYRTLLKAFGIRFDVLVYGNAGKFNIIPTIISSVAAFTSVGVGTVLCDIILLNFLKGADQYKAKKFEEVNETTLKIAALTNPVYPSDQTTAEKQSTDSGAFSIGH
- EXPERIMENT_DESCRIPTION: P2X3/P2X2/3 FLIPR (Fluorometric Imaging Plate Reader) Assay, P2X2/3
- Assay type: cell-based
- MEASUREMENT_CONDITIONS: CHO-K1 cells transfected with human P2X2/3; agonist α,β-meATP 5 μM; Table 1; read-out: P2X2/3 pKi (converted)
Please note: Ki exactly at 800 nM is False. Only values below 800 nM get True.

[ask] Is it true that Ki reported for "C[C@@H](CO)NC(=O)c1cc(-c2ccc(Cl)cn2)cc(-n2ncnc2C(C)(C)C)c1" is less than 800 nM?
[reply] False

[ask] Is it true that Ki reported for "Cc1ccc(-c2cc(C(=O)NCc3cnc(C)cn3)cc(-n3ncnc3C3CC3)c2)nc1" is less than 800 nM?
[reply] True
